Values from the supplement of paper PMC7125110

Measured self-cleavage kobs at 640 uM GlcN6P of individual entries
B1: glmS ribozyme (parent)
chain: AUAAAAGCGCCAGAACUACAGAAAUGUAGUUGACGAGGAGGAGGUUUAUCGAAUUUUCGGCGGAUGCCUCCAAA

Variants of: B1
Test: self-cleavage kobs at 640 uM GlcN6P; higher = faster cleavage; RNA array
Settings: with glucosamine-6-phosphate
This sample holds only a part of the variants without activity.

Would you please look over these solved cases?
Consider AUAAAAGCGCCAGAACUACAGAAAUGUAGUUGACGAGGAGGAGGUUUAUCGAAUUUUCGGCGGAUGAAUCCAAA [C67A C68A] . Its measured self-cleavage kobs at 640 uM GlcN6P is 5.08e-05 s⁻¹

Looking up AUAAAAGCGCCAGAACUACAGAAAUGUAGUUGACGAGGAGUAGGUUUAUCGAAUUUUCGUCGGAUGCCUCCAAA [G41U G60U] , I found its self-cleavage kobs at 640 uM GlcN6P recorded as < 1e-05 s⁻¹

Next:
Looking up AUAAAAGCGCCAGAACUACAGAAAUGUAGUUGACGAGGAGGAGGUCUAUCGAAUUUUCGGCGGAUGUCUCCAAA [U46C C67U] , I see its self-cleavage kobs at 640 uM GlcN6P listed as 0.000202 s⁻¹
